# TARGET: mitochondrial F0F1-ATPase (Saccharomyces cerevisiae, UniProt P00830+P07251+P38077)
# Construct: endogenous in cells; host or cells: isolated yeast mitochondria (cell-free preparation)
# ASSAY_PROCEDURE: F0F1-ATPase inhibition assay in isolated yeast mitochondria (20 minute cell-free assay)
# Format: biochemical
pIC50: −log10 of the molar value.
READOUT_KIND: pIC50

| SMILES | TARGET | REPORTED_VALUE |
| --- | --- | --- |
| COC[C@@H](C[C@H]1O[C@@](O)([C@H](O)[C@@H]2C[C@H](OC)[C@@H](O)CC/C=C(C)/C=C/[C@@H](O[C@@H]3O[C@@H](C)[C@H](OC)[C@@H](O)[C@@H]3O)[C@H](C)/C=C(C)/C=C(C)/C=C(\C)C(=O)O2)[C@H](C)[C@@H](O)[C@H]1C)O[C@H]1C[C@](C)(O)[C@@H](O[C@H]2C[C@@H](OC)[C@H](OC(C)=O)[C@@H](C)O2)[C@H](C)O1 | mitochondrial F0F1-ATPase (Saccharomyces cerevisiae, UniProt P00830+P07251+P38077) | 6.10 |
| COC[C@@H](C[C@H]1O[C@@](OC)([C@H](O)[C@@H]2C[C@H](OC)[C@@H](O)CC/C=C(C)/C=C/[C@@H](O[C@@H]3O[C@@H](C)[C@H](OC)[C@@H](O)[C@@H]3O)[C@H](C)/C=C(C)/C=C(C)/C=C(\C)C(=O)O2)[C@H](C)[C@@H](O)[C@H]1C)O[C@H]1C[C@](C)(O)[C@@H](O[C@H]2C[C@@H](OC)[C@H](O)[C@@H](C)O2)[C@H](C)O1 | mitochondrial F0F1-ATPase (Saccharomyces cerevisiae, UniProt P00830+P07251+P38077) | 5.64 |
| COC[C@@H](C[C@H]1O[C@@](O)([C@H](O)[C@@H]2C[C@H](OC)[C@@H](O)CC/C=C(C)/C=C/[C@@H](O[C@@H]3O[C@@H](C)[C@H](OC)[C@@H](O)[C@@H]3O)[C@H](C)/C=C(C)/C=C(C)/C=C(\C)C(=O)O2)[C@H](C)[C@@H](OC(C)=O)[C@H]1C)O[C@H]1C[C@](C)(O)[C@@H](O[C@H]2C[C@@H](OC)[C@H](OC(C)=O)[C@@H](C)O2)[C@H](C)O1 | mitochondrial F0F1-ATPase (Saccharomyces cerevisiae, UniProt P00830+P07251+P38077) | 6.40 |
| COC[C@@H](C[C@H]1O[C@@](O)([C@H](OC)[C@@H]2C[C@H](OC)[C@@H](O)CC/C=C(C)/C=C/[C@@H](O[C@@H]3O[C@@H](C)[C@H](OC)[C@@H](O)[C@@H]3O)[C@H](C)/C=C(C)/C=C(C)/C=C(\C)C(=O)O2)[C@H](C)[C@@H](O)[C@H]1C)O[C@H]1C[C@](C)(O)[C@@H](O[C@H]2C[C@@H](OC)[C@H](O)[C@@H](C)O2)[C@H](C)O1 | mitochondrial F0F1-ATPase (Saccharomyces cerevisiae, UniProt P00830+P07251+P38077) | 5.55 |

---

Entries and their pIC50 values follow.
# TARGET: mitochondrial F0F1-ATPase (Saccharomyces cerevisiae, UniProt P00830+P07251+P38077)
# Construct: endogenous in cells; host or cells: isolated yeast mitochondria (cell-free preparation)
# ASSAY_PROCEDURE: F0F1-ATPase inhibition assay in isolated yeast mitochondria (20 minute cell-free assay)
# Assay type: biochemical
pIC50: −log10 of the molar value.

| COMPOUND | TARGET | pIC50 |
| --- | --- | --- |
| COC[C@@H](C[C@H]1O[C@@](O)([C@H](O)[C@@H]2C[C@H](OC)[C@@H](O)CC/C=C(C)/C=C/[C@@H](O[C@@H]3O[C@@H](C)[C@H](OC)[C@@H](OC(C)=O)[C@@H]3O)[C@H](C)/C=C(C)/C=C(C)/C=C(\C)C(=O)O2)[C@H](C)[C@@H](O)[C@H]1C)O[C@H]1C[C@](C)(O)[C@@H](O[C@H]2C[C@@H](OC)[C@H](O)[C@@H](C)O2)[C@H](C)O1 [Compound 17] | mitochondrial F0F1-ATPase (Saccharomyces cerevisiae, UniProt P00830+P07251+P38077) | 6.40 |
| COC[C@@H](C[C@H]1O[C@@](O)([C@H](O)[C@@H]2C[C@H](OC)[C@@H](O)CC/C=C(C)/C=C/[C@@H](O[C@@H]3O[C@@H](C)[C@H](OC)[C@@H](O)[C@@H]3OC(=O)c3ccccc3)[C@H](C)/C=C(C)/C=C(C)/C=C(\C)C(=O)O2)[C@H](C)[C@@H](O)[C@H]1C)O[C@H]1C[C@](C)(O)[C@@H](O[C@H]2C[C@@H](OC)[C@H](O)[C@@H](C)O2)[C@H](C)O1 [Compound 3] | mitochondrial F0F1-ATPase (Saccharomyces cerevisiae, UniProt P00830+P07251+P38077) | 6.52 |
| COC[C@@H](C[C@H]1O[C@@](O)([C@H](OC(C)=O)[C@@H]2C[C@H](OC)[C@@H](O)CC/C=C(C)/C=C/[C@@H](O[C@@H]3O[C@@H](C)[C@H](OC)[C@@H](O)[C@@H]3O)[C@H](C)/C=C(C)/C=C(C)/C=C(\C)C(=O)O2)[C@H](C)[C@@H](O)[C@H]1C)O[C@H]1C[C@](C)(O)[C@@H](O[C@H]2C[C@@H](OC)[C@H](O)[C@@H](C)O2)[C@H](C)O1 [Compound 18] | mitochondrial F0F1-ATPase (Saccharomyces cerevisiae, UniProt P00830+P07251+P38077) | 5.96 |
| COC[C@@H](C[C@H]1O[C@@](O)([C@H](O)[C@@H]2C[C@H](OC)[C@@H](O)CC/C=C(C)/C=C/[C@@H](O[C@@H]3O[C@@H](C)[C@H](OC)[C@@H](O)[C@@H]3O)[C@H](C)/C=C(C)/C=C(C)/C=C(\C)C(=O)O2)[C@H](C)[C@@H](O)[C@H]1C)O[C@H]1C[C@](C)(O)[C@@H](O[C@H]2C[C@@H](OC)[C@H](O)[C@@H](C)O2)[C@H](C)O1 [Apoptolidin] | mitochondrial F0F1-ATPase (Saccharomyces cerevisiae, UniProt P00830+P07251+P38077) | 6.15 |
| COC[C@@H](C[C@H]1O[C@@](O)([C@@H]2OC(=O)/C(C)=C/C(C)=C/C(C)=C/[C@@H](C)[C@H](O[C@@H]3O[C@@H](C)[C@H](OC)[C@@H](O)[C@@H]3O)/C=C/C(C)=C/CC[C@H](O)[C@@H](OC)C[C@@H]2O)[C@H](C)[C@@H](O)[C@H]1C)O[C@H]1C[C@](C)(O)[C@@H](O[C@H]2C[C@@H](OC)[C@H](O)[C@@H](C)O2)[C@H](C)O1 [Isoapoptolidin] | mitochondrial F0F1-ATPase (Saccharomyces cerevisiae, UniProt P00830+P07251+P38077) | 4.77 |

---

# TARGET: mitochondrial F0F1-ATPase (Saccharomyces cerevisiae, UniProt P00830+P07251+P38077)
# Construct: endogenous in cells; host or cells: isolated yeast mitochondria (cell-free preparation)
# ASSAY_PROCEDURE: F0F1-ATPase inhibition assay in isolated yeast mitochondria (20 minute cell-free assay)
# Assay type: biochemical
# CONDITION_PARAMETERS: Table 6; apoptolidin oxidative cleavage products, mitochondrial F0F1-ATPase; read-out: IC50
# Method: The ability of isoapoptolidin and the apoptolidin derivatives described in Examples 3 and 4 to inhibit F0F1-ATPase in isolated yeast mitochondria was studied. The F0F1-ATPase assay is a rapid 20 minute cell-free assay. The functionalized macrolide and δ-lactone fragments were assayed for inhibitory activity against mitochondrial F0F1-ATPase.
pIC50: −log10 of the molar value.

| SMILES | pIC50 |
| --- | --- |
| CO[C@@H]1[C@@H](O)[C@H](O)[C@H](O[C@@H]2/C=C/C(C)=C/CC[C@H](O)[C@@H](OC)C[C@@H](CO)OC(=O)/C(C)=C/C(C)=C/C(C)=C/[C@H]2C)O[C@H]1C | 4.80 |

---

# TARGET: mitochondrial F0F1-ATPase (Saccharomyces cerevisiae, UniProt P00830+P07251+P38077)
# Construct: endogenous in cells; host or cells: isolated yeast mitochondria (cell-free preparation)
# ASSAY_PROCEDURE: F0F1-ATPase inhibition assay in isolated yeast mitochondria (20 minute cell-free assay)
# Assay type: biochemical
pIC50: −log10 of the molar value.

| COMPOUND | pIC50 |
| --- | --- |
| COC[C@@H](C[C@H]1O[C@@](O)([C@H](O)[C@@H]2C[C@H](OC)[C@@H](OC(C)=O)CC/C=C(C)/C=C/[C@@H](O[C@@H]3O[C@@H](C)[C@H](OC)[C@@H](O)[C@@H]3O)[C@H](C)/C=C(C)/C=C(C)/C=C(\C)C(=O)O2)[C@H](C)[C@@H](O)[C@H]1C)O[C@H]1C[C@](C)(O)[C@@H](O[C@H]2C[C@@H](OC)[C@H](O)[C@@H](C)O2)[C@H](C)O1 [Compound 16] | 6.10 |
